Molecular target: HIV reverse transcriptase (Human immunodeficiency virus type 1 group M subtype B)
Experiment: Reverse transcriptase scintillation proximity assay (Example 4, Table 2)
Format: biochemical
Details: 0.05 h, 10 μM inhibitor; relative to dimethyl sulfoxide = 100%; read-out: % RT activity remaining at 10 μM
The label rule met is reserved for remaining activity at 10 µM strictly under 0.3%; rule not met covers values equal to or above it.

Would you please look over these solved cases?
O=c1c(Nc2ccc3cc(S(=O)(=O)O)cc(O)c3c2)c(Nc2ccc3cc(S(=O)(=O)O)cc(O)c3c2)c1=O
rule not met
COc1cc(C(=O)O)ccc1N=Nc1c(S(=O)(=O)O)cc2cc(NC(=O)c3cc(O)cc(C(=O)Nc4ccc5c(O)c(N=Nc6ccc(C(=O)O)cc6OC)c(S(=O)(=O)O)cc5c4)n3)ccc2c1O
rule met
O=C(O)CC(C(=O)O)c1ccc(N=Nc2c(S(=O)(=O)O)cc3cc(NC(=O)c4cccc(C(=O)Nc5ccc6c(O)c(N=Nc7ccc(C(CC(=O)O)C(=O)O)cc7)c(S(=O)(=O)O)cc6c5)n4)ccc3c2O)cc1 (centres unmarked)
rule not met

Then this compound:
Please let me know if COC(=O)c1cc(NC(=O)Nc2ccc3c(S(=O)(=O)O)cc(S(=O)(=O)O)cc3c2)cc(C(=O)OC)c1 shows remaining activity at 10 µM below 0.3%.
rule not met

---

Molecular target: HIV reverse transcriptase (Human immunodeficiency virus type 1 group M subtype B)
Test: Reverse transcriptase scintillation proximity assay (Example 4, Table 2)
Format: biochemical
Conditions: 0.05 h, 10 μM inhibitor; relative to dimethyl sulfoxide = 100%; read-out: % RT activity remaining at 10 μM
A collection of molecules and their measured remaining activity at 10 µM
Your answer should be a plain number; it is taken to be in %.

Reference set (2 entries):
O=C(Nc1ccc2c(O)cc(S(=O)(=O)O)cc2c1)c1ccc(C(=O)Nc2ccc3c(O)cc(S(=O)(=O)O)cc3c2)cc1
74
COc1cc(N=Nc2c(S(=O)(=O)O)cc3cc(NC(=O)c4cccc(C(=O)Nc5ccc6c(O)c(N=Nc7cc(OC)c(OC)c(OC)c7C(=O)O)c(S(=O)(=O)O)cc6c5)n4)ccc3c2O)c(C(=O)O)c(OC)c1OC
5

Now for a further molecule.
Name the recorded remaining activity at 10 µM for O=C(Nc1ccc2c(O)cc(S(=O)(=O)O)cc2c1)Nc1cccc2c(=O)[nH][nH]c(=O)c12 .
81

---

Below are pIC50 values measured for HIV reverse transcriptase (Human immunodeficiency virus type 1 group M subtype B).
Expect pIC50 as a plain number equal to -log10 of the molar concentration.

Reference set (4 entries):
O=C(Nc1ccc2c(O)c(N=Nc3cccc(C(=O)O)c3)c(S(=O)(=O)O)cc2c1)Nc1ccc2c(O)c(N=Nc3cccc(C(=O)O)c3)c(S(=O)(=O)O)cc2c1
6.10
O=c1c(Nc2ccc3c(O)cc(S(=O)(=O)O)cc3c2)c(Nc2ccc3c(O)cc(S(=O)(=O)O)cc3c2)c1=O
6.00
O=C(O)CC(C(=O)O)c1ccc(N=Nc2c(S(=O)(=O)O)cc3cc(NC(=O)Nc4ccc5c(O)c(N=Nc6ccc(C(CC(=O)O)C(=O)O)cc6)c(S(=O)(=O)O)cc5c4)ccc3c2O)cc1 (centres unmarked)
6.30
O=C(O)Cc1ccc(N=Nc2c(S(=O)(=O)O)cc3cc(NC(=O)Nc4ccc5c(O)c(N=Nc6ccc(CC(=O)O)cc6)c(S(=O)(=O)O)cc5c4)ccc3c2O)cc1
6.30

Now for a further compound.
Name the recorded pIC50 for O=C(Nc1ccc2c(O)c(N=Nc3ccc(C(=O)O)cc3)c(S(=O)(=O)O)cc2c1)Nc1ccc2c(O)c(N=Nc3ccc(C(=O)O)cc3)c(S(=O)(=O)O)cc2c1 .
6.41

---

Biological target: HIV integrase (Human immunodeficiency virus type 1 group M subtype B)
Experiment: biochemical
Details: read-out: Inhibition of 3' processing activity (IC50)
pIC50: −log10 of the molar value.
property_name: pIC50

Reference set (2 entries):
COc1cc(N=Nc2c(S(=O)(=O)O)cc3cc(NC(=O)C(=O)Nc4ccc5c(O)c(N=Nc6cc(OC)c(C(=O)O)cc6Cl)c(S(=O)(=O)O)cc5c4)ccc3c2O)c(Cl)cc1C(=O)O [Compound 100]
6.40
COc1cc(N=Nc2c(S(=O)(=O)O)cc3cc(NC(=O)Nc4ccc5c(O)c(N=Nc6cc(OC)cc(OC)c6)c(S(=O)(=O)O)cc5c4)ccc3c2O)cc(OC)c1 [Compound 38]
< 5.52

Now for a further compound.
Name the recorded pIC50 for CCOC(=O)c1cccc(N=Nc2c(S(=O)(=O)O)cc3cc(NC(=O)Nc4ccc5c(O)c(N=Nc6cccc(C(=O)OCC)c6)c(S(=O)(=O)O)cc5c4)ccc3c2O)c1 [Compound 43] .
< 4.70

---

Target: HIV integrase (Human immunodeficiency virus type 1 group M subtype B, UniProt P04585)
Assay: biochemical
Conditions: read-out: Inhibition of 3' processing activity (IC50)
A collection of compounds and their measured IC50
Your answer should be a plain number; it is taken to be in nM.

Reference set (2 entries):
O=C(Nc1ccc2c(O)c(N=Nc3cc(C(=O)O)cc(C(=O)O)c3)c(S(=O)(=O)O)cc2c1)Nc1ccc2c(O)c(N=Nc3cc(C(=O)O)cc(C(=O)O)c3)c(S(=O)(=O)O)cc2c1
500
O=C(Nc1ccc2c(O)c(N=Nc3ccc4oc(=O)ccc4c3)c(S(=O)(=O)O)cc2c1)Nc1ccc2c(O)c(N=Nc3ccc4oc(=O)ccc4c3)c(S(=O)(=O)O)cc2c1
2000

Now for a further compound.
Name the recorded IC50 for O=C(Nc1ccc2c(O)c(N=Nc3cc(C(=O)O)ccc3C(=O)O)c(S(=O)(=O)O)cc2c1)C(=O)Nc1ccc2c(O)c(N=Nc3cc(C(=O)O)ccc3C(=O)O)c(S(=O)(=O)O)cc2c1 .
600

---

Target: HIV reverse transcriptase (Human immunodeficiency virus type 1 group M subtype B)
Experiment: Reverse transcriptase scintillation proximity assay (Example 4, Table 2)
Type: biochemical
Conditions: 0.05 h, 10 μM inhibitor; relative to dimethyl sulfoxide = 100%; read-out: % RT activity remaining at 10 μM
property_name: remaining activity at 10 µM (%)
Your answer should be a plain number; it is taken to be in %.

O=C(O)CC(C(=O)O)c1ccc(N=Nc2c(S(=O)(=O)O)cc3cc(NC(=O)c4ccc(C(=O)Nc5ccc6c(O)c(N=Nc7ccc(C(CC(=O)O)C(=O)O)cc7)c(S(=O)(=O)O)cc6c5)cc4)ccc3c2O)cc1 (stereo not drawn) [Compound 166]
0.14
O=C(Nc1ccc2c(c1)C(=O)c1ccccc1C2=O)Nc1ccc2c(O)cc(S(=O)(=O)O)cc2c1 [Compound 15]
88

Now for a further compound.
Name the recorded remaining activity at 10 µM for COC(=O)c1ccccc1NC(=O)Nc1ccc2cc(S(=O)(=O)O)cc(O)c2c1 [Compound 24] .
90

---

Molecular target: HIV integrase (Human immunodeficiency virus type 1 group M subtype B, UniProt P04585)
Assay: biochemical
Conditions: read-out: Inhibition of 3' processing activity (IC50)
A collection of compounds and their measured IC50
Your answer should be a plain number; it is taken to be in nM.

O=C(Nc1ccc2c(O)c(N=Nc3ncn[nH]3)c(S(=O)(=O)O)cc2c1)Nc1ccc2c(O)c(N=Nc3ncn[nH]3)c(S(=O)(=O)O)cc2c1
800
O=C(O)CCCc1ccc(N=Nc2c(S(=O)(=O)O)cc3cc(NC(=O)C(=O)Nc4ccc5c(O)c(N=Nc6ccc(CCCC(=O)O)cc6)c(S(=O)(=O)O)cc5c4)ccc3c2O)cc1
400
O=C(O)CCCc1ccc(N=Nc2c(S(=O)(=O)O)cc3cc(NC(=O)Nc4ccc5c(O)c(N=Nc6ccc(CCCC(=O)O)cc6)c(S(=O)(=O)O)cc5c4)ccc3c2O)cc1
800
O=C(O)CCC(NC(=O)c1ccc(N=Nc2c(S(=O)(=O)O)cc3cc(NC(=O)Nc4ccc5c(O)c(N=Nc6ccc(C(=O)NC(CCC(=O)O)C(=O)O)cc6)c(S(=O)(=O)O)cc5c4)ccc3c2O)cc1)C(=O)O (stereo not shown)
600
O=C(O)CC(C(=O)O)c1ccc(N=Nc2c(S(=O)(=O)O)cc3cc(NC(=O)C(=O)Nc4ccc5c(O)c(N=Nc6ccc(C(CC(=O)O)C(=O)O)cc6)c(S(=O)(=O)O)cc5c4)ccc3c2O)cc1 (stereo not shown)
500

Given the entry O=C(O)Cc1ccc(N=Nc2c(S(=O)(=O)O)cc3cc(NC(=O)Nc4ccc5c(O)c(N=Nc6ccc(CC(=O)O)cc6)c(S(=O)(=O)O)cc5c4)ccc3c2O)cc1 , what IC50 was observed with HIV integrase (Human immunodeficiency virus type 1 group M subtype B, UniProt P04585)?
2000

Given the entry CC(=O)Nc1ccc(N=Nc2c(S(=O)(=O)O)cc3cc(NC(=O)C(=O)Nc4ccc5c(O)c(N=Nc6ccc(NC(C)=O)cc6)c(S(=O)(=O)O)cc5c4)ccc3c2O)cc1 , what IC50 was observed with HIV integrase (Human immunodeficiency virus type 1 group M subtype B, UniProt P04585)?
1000

Given the entry O=C(O)CCc1ccc(N=Nc2c(S(=O)(=O)O)cc3cc(NC(=O)Nc4ccc5c(O)c(N=Nc6ccc(CCC(=O)O)cc6)c(S(=O)(=O)O)cc5c4)ccc3c2O)cc1 , what IC50 was observed with HIV integrase (Human immunodeficiency virus type 1 group M subtype B, UniProt P04585)?
400

Data provenance: patent US6140368A
